- TEST: Selectivity ratio of Ki of GRapha to Ki of progesterone receptor
ENDPOINT NAME: Ratio Ki
Just the number, please.

For this molecule ( CC(C)(C(=O)Nc1nccs1)[C@@H](c1ccccc1)c1ccc(O)c(F)c1 ), measured Ratio Ki is 66

For this molecule ( CC(C)(C(=O)Nc1nccs1)[C@@H](c1ccccc1)c1ccc(O)c(Br)c1 ), measured Ratio Ki is 66

For this molecule ( CC(C)(C(=O)Nc1nncs1)[C@H]1c2ccccc2Oc2cc(O)ccc21 ), measured Ratio Ki is 66

* * *

I'd be grateful if you could share measured pEC50 for these entries.
- TESTED ON: Glucocorticoid receptor (Homo sapiens, UniProt P04150)
- Sequence (P04150 whole entry): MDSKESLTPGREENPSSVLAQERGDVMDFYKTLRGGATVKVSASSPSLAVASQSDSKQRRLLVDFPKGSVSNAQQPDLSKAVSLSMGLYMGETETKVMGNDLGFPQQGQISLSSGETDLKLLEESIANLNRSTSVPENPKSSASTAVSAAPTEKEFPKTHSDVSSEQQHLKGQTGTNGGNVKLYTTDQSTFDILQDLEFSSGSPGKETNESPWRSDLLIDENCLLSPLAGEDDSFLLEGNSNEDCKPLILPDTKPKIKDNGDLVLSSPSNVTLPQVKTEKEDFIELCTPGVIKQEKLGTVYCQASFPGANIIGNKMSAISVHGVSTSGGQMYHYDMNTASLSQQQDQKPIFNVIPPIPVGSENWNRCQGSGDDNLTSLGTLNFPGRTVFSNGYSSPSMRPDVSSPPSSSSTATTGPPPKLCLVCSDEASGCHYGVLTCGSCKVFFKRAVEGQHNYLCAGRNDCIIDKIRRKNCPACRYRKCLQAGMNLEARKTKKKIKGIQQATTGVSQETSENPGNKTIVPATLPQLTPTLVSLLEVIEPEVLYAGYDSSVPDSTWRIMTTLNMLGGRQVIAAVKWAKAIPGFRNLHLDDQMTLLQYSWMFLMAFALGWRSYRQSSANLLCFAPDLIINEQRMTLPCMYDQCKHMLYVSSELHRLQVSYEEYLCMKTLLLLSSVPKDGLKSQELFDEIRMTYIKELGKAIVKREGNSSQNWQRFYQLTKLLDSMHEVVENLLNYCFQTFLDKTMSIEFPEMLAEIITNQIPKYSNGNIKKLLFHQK
- TEST: Transrepression activity of glucocorticoid receptor in human A549 cells assessed as inhibition of IL1beta-stimulated NFkappaB-dependent E-selectin transcription by luciferase reporter gene assay
- Assay type: cell-based
pEC50: −log10 of the molar value.

For this molecule ( CC(C)(C(=O)Nc1nncs1)C1c2ccccc2Oc2ccccc21 ), measured pEC50 is < 5.30

For this molecule ( CC(=O)c1cc([C@H](c2ccccc2)C(C)(C)C(=O)Nc2nccs2)ccc1O ), measured pEC50 is < 5.30

For this molecule ( CC(C)(C(=O)Nc1nccs1)[C@H]1c2ccccc2Oc2cc(O)ccc21 ), measured pEC50 is 8.03

For this molecule ( CC(C)(C(=O)Nc1nncs1)[C@@H]1c2ccccc2Oc2cc(O)ccc21 ), measured pEC50 is < 5.30

For this molecule ( CC(C)(C(=O)Nc1nccs1)[C@@H](c1ccccc1)c1ccc(O)c(Br)c1 ), measured pEC50 is 8.07

For this molecule ( CC(C)(C(=O)Nc1nccs1)[C@H](c1ccccc1)c1ccc(O)c(F)c1 ), measured pEC50 is < 5.30

Value source: ChEMBL document CHEMBL1799968
